# assayed system: Vascular endothelial growth factor receptor 2 (Homo sapiens)
# Sequence (P35968 whole entry): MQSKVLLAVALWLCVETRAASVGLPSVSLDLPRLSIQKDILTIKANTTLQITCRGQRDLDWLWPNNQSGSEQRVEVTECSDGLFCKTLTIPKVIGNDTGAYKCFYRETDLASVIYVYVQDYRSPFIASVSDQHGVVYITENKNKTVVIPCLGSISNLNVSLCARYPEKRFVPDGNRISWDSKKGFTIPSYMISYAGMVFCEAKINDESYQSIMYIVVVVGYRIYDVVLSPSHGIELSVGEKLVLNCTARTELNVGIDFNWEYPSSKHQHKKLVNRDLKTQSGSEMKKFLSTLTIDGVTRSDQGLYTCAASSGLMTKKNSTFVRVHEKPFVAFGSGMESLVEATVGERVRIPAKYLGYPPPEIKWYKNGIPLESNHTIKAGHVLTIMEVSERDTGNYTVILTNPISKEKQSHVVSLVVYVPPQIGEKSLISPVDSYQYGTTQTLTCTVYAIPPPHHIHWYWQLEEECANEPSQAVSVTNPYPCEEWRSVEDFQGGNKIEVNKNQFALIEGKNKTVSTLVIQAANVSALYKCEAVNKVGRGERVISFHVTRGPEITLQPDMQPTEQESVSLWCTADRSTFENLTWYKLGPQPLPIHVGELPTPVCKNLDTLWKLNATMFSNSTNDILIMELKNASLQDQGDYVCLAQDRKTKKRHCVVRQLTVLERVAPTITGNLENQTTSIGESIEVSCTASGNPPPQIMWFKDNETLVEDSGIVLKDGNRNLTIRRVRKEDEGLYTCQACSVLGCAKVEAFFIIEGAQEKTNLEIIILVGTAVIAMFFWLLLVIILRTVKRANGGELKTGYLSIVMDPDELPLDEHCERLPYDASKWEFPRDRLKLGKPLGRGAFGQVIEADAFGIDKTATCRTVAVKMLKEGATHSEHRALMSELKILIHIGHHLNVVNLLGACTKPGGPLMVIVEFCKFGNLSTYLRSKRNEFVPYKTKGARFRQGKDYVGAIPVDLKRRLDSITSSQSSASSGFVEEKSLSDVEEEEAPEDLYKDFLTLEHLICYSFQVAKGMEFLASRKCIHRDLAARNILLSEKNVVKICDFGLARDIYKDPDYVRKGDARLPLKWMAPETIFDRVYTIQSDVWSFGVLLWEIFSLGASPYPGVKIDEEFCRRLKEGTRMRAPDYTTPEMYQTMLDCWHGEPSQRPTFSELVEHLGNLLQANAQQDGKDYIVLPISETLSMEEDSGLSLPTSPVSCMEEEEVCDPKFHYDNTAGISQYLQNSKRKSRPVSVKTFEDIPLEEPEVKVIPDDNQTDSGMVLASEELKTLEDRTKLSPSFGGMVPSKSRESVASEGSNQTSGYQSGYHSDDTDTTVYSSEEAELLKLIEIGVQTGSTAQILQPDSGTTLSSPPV
# method summary: Inhibition of VEGFR2 expressed in human A431 cells
endpoint label: IC50

Below, 8 compounds whose answers are already recorded.
| molecule smiles | assayed system | IC50 |
| --- | --- | --- |
| COc1ccc(OC)c(Cc2cc3c(N(C)c4cccc(Br)c4)nc(N)nc3[nH]2)c1 | Vascular endothelial growth factor receptor 2 (Homo sapiens) | > 200 µM |
| Cc1ccccc1Cc1cc2c(N(C)c3cccc(Br)c3)nc(N)nc2n1C | Vascular endothelial growth factor receptor 2 (Homo sapiens) | > 200 µM |
| COc1ccc(OC)c(Cc2cc3c(N(C)c4cccc(Br)c4)nc(N)nc3n2C)c1 | Vascular endothelial growth factor receptor 2 (Homo sapiens) | > 200 µM |
| Cc1ccccc1Cc1cc2c(N(C)c3cccc(Br)c3)nc(N)nc2[nH]1 | Vascular endothelial growth factor receptor 2 (Homo sapiens) | > 200 µM |
| Cn1c(Cc2ccccc2)cc2c(Nc3cccc(Br)c3)nc(N)nc21 | Vascular endothelial growth factor receptor 2 (Homo sapiens) | > 200 µM |
| COc1ccc(OC)c(Cc2cc3c(Nc4cccc(Br)c4)nc(N)nc3n2C)c1 | Vascular endothelial growth factor receptor 2 (Homo sapiens) | > 200 µM |
| Cc1ccccc1Cc1cc2c(Nc3cccc(Br)c3)nc(N)nc2n1C | Vascular endothelial growth factor receptor 2 (Homo sapiens) | 116 µM |
| COc1ccc(OC)c(Cc2cc3c(Nc4cccc(Br)c4)nc(N)nc3[nH]2)c1 | Vascular endothelial growth factor receptor 2 (Homo sapiens) | 0.62 µM |

Please state IC50 for every compound in the list that follows.
1. Cc1ccccc1Cc1cc2c(Nc3cccc(Br)c3)nc(N)nc2[nH]1
2. CN(c1cccc(Br)c1)c1nc(N)nc2c1cc(Cc1ccccc1)n2C
3. CN(c1cccc(Br)c1)c1nc(N)nc2[nH]c(Cc3ccccc3)cc12

1. 0.25 µM
2. > 200 µM
3. 89.2 µM

----------
# assayed system: UniProt:P00533
# Sequence (P00533 whole entry): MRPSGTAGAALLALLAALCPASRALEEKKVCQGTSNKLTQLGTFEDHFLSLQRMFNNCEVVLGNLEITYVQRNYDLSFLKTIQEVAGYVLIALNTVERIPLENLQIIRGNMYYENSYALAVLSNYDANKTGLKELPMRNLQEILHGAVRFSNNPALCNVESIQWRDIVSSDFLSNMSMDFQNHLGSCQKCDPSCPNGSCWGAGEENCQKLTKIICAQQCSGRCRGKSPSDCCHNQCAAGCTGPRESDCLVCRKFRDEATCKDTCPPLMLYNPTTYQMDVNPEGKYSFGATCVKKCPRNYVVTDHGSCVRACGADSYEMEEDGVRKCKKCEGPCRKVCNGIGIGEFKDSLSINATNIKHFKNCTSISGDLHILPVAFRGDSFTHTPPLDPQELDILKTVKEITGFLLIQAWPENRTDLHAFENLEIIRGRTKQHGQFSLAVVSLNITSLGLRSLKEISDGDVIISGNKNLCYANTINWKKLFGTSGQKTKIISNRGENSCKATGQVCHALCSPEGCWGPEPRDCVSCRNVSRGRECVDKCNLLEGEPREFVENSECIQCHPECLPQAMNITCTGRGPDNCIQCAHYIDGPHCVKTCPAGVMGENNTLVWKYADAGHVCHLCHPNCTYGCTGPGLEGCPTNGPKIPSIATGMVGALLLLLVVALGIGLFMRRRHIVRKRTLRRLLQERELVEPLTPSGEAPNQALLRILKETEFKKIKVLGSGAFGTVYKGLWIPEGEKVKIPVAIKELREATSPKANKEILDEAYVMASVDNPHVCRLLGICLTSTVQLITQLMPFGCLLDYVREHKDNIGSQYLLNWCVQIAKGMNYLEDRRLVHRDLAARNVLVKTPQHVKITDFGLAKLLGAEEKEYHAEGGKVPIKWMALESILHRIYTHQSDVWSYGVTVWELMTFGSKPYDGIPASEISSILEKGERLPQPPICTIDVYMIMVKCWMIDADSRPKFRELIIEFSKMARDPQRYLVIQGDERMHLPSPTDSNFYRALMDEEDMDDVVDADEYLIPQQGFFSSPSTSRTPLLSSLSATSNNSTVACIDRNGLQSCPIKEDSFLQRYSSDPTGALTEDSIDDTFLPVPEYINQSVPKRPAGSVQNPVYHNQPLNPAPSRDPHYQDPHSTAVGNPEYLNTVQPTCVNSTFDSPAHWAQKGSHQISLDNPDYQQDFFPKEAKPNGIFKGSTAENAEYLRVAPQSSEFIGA
# method summary: Inhibition of EGFR expressed in human A431 cells
endpoint label: IC50 (µM)
Numbers only, in µM.

Below, 5 molecules whose answers are already recorded.
| molecule smiles | reported |
| --- | --- |
| Cc1ccccc1Cc1cc2c(N(C)c3cccc(Br)c3)nc(N)nc2[nH]1 | 31.2 |
| CN(c1cccc(Br)c1)c1nc(N)nc2c1cc(Cc1ccccc1)n2C | 254 |
| Cc1ccccc1Cc1cc2c(Nc3cccc(Br)c3)nc(N)nc2n1C | 12.8 |
| CN(c1cccc(Br)c1)c1nc(N)nc2[nH]c(Cc3ccccc3)cc12 | 53.1 |
| COc1ccc(OC)c(Cc2cc3c(N(C)c4cccc(Br)c4)nc(N)nc3n2C)c1 | 0.5 |

Please state IC50 for every molecule in the list that follows.
1. Cc1ccccc1Cc1cc2c(N(C)c3cccc(Br)c3)nc(N)nc2n1C
2. COc1ccc(OC)c(Cc2cc3c(N(C)c4cccc(Br)c4)nc(N)nc3[nH]2)c1

1. 1.2
2. 144

----------
Can you tell me IC50 for the items I'm about to list?
# assayed system: UniProt P09619
# Sequence (P09619 whole entry): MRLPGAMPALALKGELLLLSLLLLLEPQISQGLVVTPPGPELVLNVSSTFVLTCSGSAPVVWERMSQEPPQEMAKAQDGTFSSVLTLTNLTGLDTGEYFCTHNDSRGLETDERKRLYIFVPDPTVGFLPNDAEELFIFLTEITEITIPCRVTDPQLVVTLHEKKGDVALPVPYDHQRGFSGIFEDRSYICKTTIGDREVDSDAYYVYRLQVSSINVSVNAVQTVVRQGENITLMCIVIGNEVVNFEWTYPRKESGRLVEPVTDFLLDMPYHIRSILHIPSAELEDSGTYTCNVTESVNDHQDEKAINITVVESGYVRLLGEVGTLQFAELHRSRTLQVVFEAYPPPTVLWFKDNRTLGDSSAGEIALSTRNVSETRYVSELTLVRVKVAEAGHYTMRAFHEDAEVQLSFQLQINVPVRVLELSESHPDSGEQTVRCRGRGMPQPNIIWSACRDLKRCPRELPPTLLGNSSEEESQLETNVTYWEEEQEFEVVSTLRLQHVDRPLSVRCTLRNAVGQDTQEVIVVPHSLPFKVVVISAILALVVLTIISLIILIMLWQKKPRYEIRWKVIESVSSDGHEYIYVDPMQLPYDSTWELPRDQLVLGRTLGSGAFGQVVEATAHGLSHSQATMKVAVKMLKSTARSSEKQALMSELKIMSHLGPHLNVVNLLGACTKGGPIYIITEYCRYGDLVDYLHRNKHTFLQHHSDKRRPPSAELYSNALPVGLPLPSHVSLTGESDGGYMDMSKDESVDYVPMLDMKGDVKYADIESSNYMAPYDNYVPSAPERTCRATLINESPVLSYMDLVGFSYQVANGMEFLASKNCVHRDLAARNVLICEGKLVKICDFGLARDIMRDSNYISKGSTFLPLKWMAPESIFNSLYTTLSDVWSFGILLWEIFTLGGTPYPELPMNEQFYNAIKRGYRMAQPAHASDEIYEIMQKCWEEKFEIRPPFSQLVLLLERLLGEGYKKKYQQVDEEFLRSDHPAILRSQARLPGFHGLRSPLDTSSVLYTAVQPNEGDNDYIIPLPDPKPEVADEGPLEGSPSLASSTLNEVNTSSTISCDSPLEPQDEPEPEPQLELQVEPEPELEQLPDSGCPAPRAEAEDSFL
# method summary: Inhibition of PDGFRbeta expressed in human A431 cells
Answers are plain numbers, in µM.

Below, 4 molecules whose answers are already recorded.
| molecule smiles | IC50 / µM |
| --- | --- |
| CN(c1cccc(Br)c1)c1nc(N)nc2c1cc(Cc1ccccc1)n2C | 71.7 |
| Cn1c(Cc2ccccc2)cc2c(Nc3cccc(Br)c3)nc(N)nc21 | 2.8 |
| Cc1ccccc1Cc1cc2c(N(C)c3cccc(Br)c3)nc(N)nc2[nH]1 | 34.8 |
| COc1ccc(OC)c(Cc2cc3c(Nc4cccc(Br)c4)nc(N)nc3n2C)c1 | 348 |

Recall the recorded IC50 for "COc1ccc(OC)c(Cc2cc3c(N(C)c4cccc(Br)c4)nc(N)nc3[nH]2)c1" with UniProt P09619 and state it. 1.3
